test: mitochondrial membrane potential change in A549 cells, profiling panel, cell-based, JC-1 fluorescence, basal, 24 h, 100 nL (AID 1138);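 note: A549 lung adenocarcinoma cells under basal conditions with no added stimulus; test concentration not given here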
testParameters: higher = more signal
z-score below -0.2 gives not met; z-score at or above it gives met.

C#CCCCON=C1[C@H]2CCn3c(=O)n([C@@H](CC)c4ccccc4)c(=O)n3[C@H]2[C@H](O)[C@@H]2O[C@H]12 : met
Cc1cc(C)c(-c2cc([C@H](C)ON=C[C@@H](C)[C@H](OCc3ccccc3)C(C)C)on2)c(C)c1 : met
CCOC(=O)CCN1C(=O)[C@H]2[C@H]3[C@H](O)[C@H](O)CC(=NOCC=C(C)CCC=C(C)C)[C@H]3CC[C@H]2C1=O : met
O=C1[C@H]2[C@H]3[C@H](O)[C@H](O)CC(=NO[C@@H]4O[C@H](CO)[C@@H](O)[C@H](O)[C@H]4O)[C@@H]3CC[C@H]2C(=O)N1C1CCCCC1 : met
CCN1C(=O)[C@H]2[C@H]3[C@H](O)[C@H](O)CC(=NOCC[C@@H]4C=C[C@H](OC(C)=O)[C@@H](COC(C)=O)O4)[C@@H]3CC[C@H]2C1=O : not met
CCOC(=O)CCN1C(=O)[C@H]2[C@H]3[C@H](O)[C@H](O)CC(=NOCC(C)C)[C@@H]3CC[C@H]2C1=O : not met
CON=C(C)CCN1CCCc2nc(C)c(C)cc21 : met
CC(C)CON=C1C[C@@H](O)[C@@H](O)[C@@H]2[C@@H]3C(=O)N(Cc4ccccc4)C(=O)[C@@H]3CC[C@H]12 : not met

Determine whether measured z-score meets or exceeds -0.2 for O=C1[C@H]2[C@H]3[C@H](O)[C@H](O)CC(=NO[C@@H]4O[C@H](CO)[C@@H](O)[C@H](O)[C@H]4O)[C@H]3CC[C@H]2C(=O)N1C[C@@H]1CCCO1
not met

# iterate: CC(C)[C@@H](OCc1ccccc1)[C@H](C)CON=C1[C@H]2CCn3c(=O)n(-c4ccccc4)c(=O)n3[C@H]2[C@H](O)[C@@H]2O[C@H]12
met

# iterate: CC(=O)OC[C@H]1O[C@@H](ON=C(C)CCC(=O)OC[C@H]2O[C@H](C#Cc3ccccc3)C=C[C@@H]2Oc2ccc(C)cc2)[C@H](OC(C)=O)[C@@H](OC(C)=O)[C@@H]1OC(C)=O
met

---

targetUnderTest: Streptavidin (Streptomyces avidinii)
test: streptavidin binders on small-molecule microarray, primary screen, artefact control for SMM compound annotation, biophysical, 635/667 nm fluorescence (AID 1147);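 note: signal reflects streptavidin binding to arrayed compounds as a control protein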
testParameters: streptavidin binding, higher = more signal
composite z-score below -0.07 gives class 0; composite z-score at or above it gives class 1.

Field: example entries. Status: answers known.
CC(=O)OC[C@H]1O[C@H](CC=NO[C@@H](C)c2cc(-c3c(C)cc(C)cc3C)no2)C=C[C@@H]1OC(C)=O : class 1
COC(=O)[C@H](C)NC(=O)CCC1CC(OC(=O)NCc2ccc3c(c2)OCO3)CC2(CCCC(COC(=O)NCCc3ccc(Cl)cc3)O2)O1 (stereo partly drawn) : class 0
C[C@@H]1C=CCC(=O)OC[C@H](C)C(=O)N[C@@H](Cc2ccccc2)C(=O)OC1 : class 1
O=C1C=C[C@@H](O)[C@@H]2[C@@H]3C(=O)N(Cc4ccccc4)C(=O)[C@@H]3CC[C@@H]12 : class 1
O=C1CCCC=C1C(O)C1CCCCC1 (stereo not drawn) : class 0
CO[C@@H]1C=CCC(=O)N[C@@H](C)C(=O)OC[C@@H](NS(=O)(=O)c2ccc(C)cc2)[C@H](C)C=CCC(=O)OC[C@H]1C : class 0

Determine whether measured composite z-score meets or exceeds -0.07 for CC(=O)OC[C@H]1O[C@@H](ON=C2[C@H]3CCn4c(=O)n(-c5ccccc5)c(=O)n4[C@H]3[C@H](O)[C@@H]3O[C@H]23)[C@H](OC(C)=O)[C@@H](OC(C)=O)[C@@H]1OC(C)=O
class 1

# iterate: CC(=O)OC[C@H]1O[C@H](CC=NO[C@H](C)c2cn([C@@H]3COC[C@H]3O)nn2)C=C[C@@H]1OC(C)=O
class 1

# iterate: CC(=O)OC[C@H]1O[C@H](CC=NOCC[C@@H]2C=C[C@H](OC(C)=O)[C@@H](COC(C)=O)O2)C=C[C@@H]1OC(C)=O
class 1

# iterate: COC(=O)[C@@H]1CC[C@H](C)[C@@H](c2ccc(C)cc2)N1C(=O)c1ccc(C=NOC[C@@H](O)[C@H]2O[C@@H]3OC(C)(C)O[C@@H]3[C@H]2O)cc1
class 1

# iterate: CC(CCN1CCc2nc(-c3ccccc3)c(-c3ccccc3)cc2C1)=NOC(C)CN1CCCc2nc(C)c(C)cc21 (stereo not drawn)
class 1

# iterate: COC(=O)[C@H](C)NC(=O)CCC1CC(OC(=O)NCc2cccc3ccccc23)CC2(CCCC(COC(=O)NCCCN3CCCC3=O)O2)O1 (stereo partly drawn)
class 1

# iterate: C=CC[C@@H]1C=C[C@H](ON=CC[C@@H]2C=C[C@H](OC(C)=O)[C@@H](COC(C)=O)O2)[C@@H](CO)O1
class 1

# iterate: COCOc1ccc(Br)cc1C(=O)C=Cc1ccc2c(c1)OCO2
class 0

# iterate: CSCC[C@@H]1NC(=O)CC=C[C@@H](C)COC(=O)[C@H](C)COC1=O
class 0

# iterate: O=C1[C@H]2[C@H]3[C@H](O)[C@H](O)CC(=NO[C@@H]4O[C@H](CO)[C@@H](O)[C@H](O)[C@H]4O)[C@H]3CC[C@H]2C(=O)N1C[C@@H]1CCCO1
class 1

# iterate: CC(CCN1CCCc2nc(C)c(C)cc21)=NOC[C@@H](O)COCc1ccco1
class 1

# iterate: COc1ccc(O[C@H]2C=C[C@@H](c3ccccc3)O[C@@H]2CO)cc1
class 1

# iterate: CC(C)[C@@H](OCc1ccccc1)[C@H](C)C=NO[C@H](C)c1cn([C@@H]2COC[C@H]2O)nn1
class 1

# iterate: CC(CCN1CCCCc2nc(C)c(C)cc21)=NO[C@@H](C)c1cc(-c2c(C)cc(C)cc2C)no1
class 0

# iterate: O=C1C2=CC[C@H]3C(=O)N(Cc4ccccc4)C(=O)[C@H]3[C@H]2[C@H](O)[C@@H]2O[C@H]12
class 0

# iterate: C=CC[C@@H]1C=C[C@H](ON=C2C[C@@H](O)[C@@H](O)[C@@H]3[C@@H]4C(=O)N(CC)C(=O)[C@@H]4CC[C@@H]23)[C@@H](CO)O1
class 0
